compound: CCCOC(=O)c1cn(CC)c2nc(N3CCNCC3)c(F)cc2c1=O
melting point: 133 to 135 °C
--
compound: CC1(C)CCC(C)(C)c2cc(-c3cc(I)ccc3-c3ccccc3)ccc21
melting point: 120 to 122 °C
--
compound: Cc1nc(-n2ccc(OCc3cccnc3)cc2=O)sc1C(=O)NCc1ccccc1
melting point: 214 to 216 °C
--
compound: CC(=O)N1N=C(c2ccncc2)OC1c1c(Cl)cccc1Cl (stereo not given)
melting point: 163 °C
--
compound: O=C(O)COc1cc2c(c(Cl)c1Cl)C(=O)C(c1ccc(F)cc1)C2 (stereo not given)
melting point: 189 to 190 °C
